target: recombinant mouse GALK1 (Mus musculus, UniProt Q9R0N0)
Sequence (Q9R0N0 whole entry): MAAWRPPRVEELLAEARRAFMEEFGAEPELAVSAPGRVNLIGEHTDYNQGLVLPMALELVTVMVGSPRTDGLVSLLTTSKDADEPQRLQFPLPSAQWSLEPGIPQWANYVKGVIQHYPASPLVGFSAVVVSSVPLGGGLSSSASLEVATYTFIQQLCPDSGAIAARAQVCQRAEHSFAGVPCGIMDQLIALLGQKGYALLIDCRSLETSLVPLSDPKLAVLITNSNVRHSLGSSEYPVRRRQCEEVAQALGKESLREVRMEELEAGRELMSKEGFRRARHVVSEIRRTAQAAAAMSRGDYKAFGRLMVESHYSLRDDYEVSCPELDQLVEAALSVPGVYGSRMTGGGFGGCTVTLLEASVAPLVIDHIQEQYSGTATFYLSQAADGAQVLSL
protocol notes: mGALK1 biochemical activity assay (Kinase-Glo Plus, ATP depletion)
assay setup: recombinant mouse GALK1, Kinase-Glo Plus ATP depletion; read-out: mGALK
Checkbox rule: IC50 lower than 10 µM = TRUE; IC50 not lower than 10 µM = FALSE.

Example entries begin here.
• CC1=C(C(=O)Nc2cc(C(=O)O)ccn2)C(c2ccc(-c3ccc(C(F)(F)F)nc3)cc2Cl)N=C(Nc2nc3ccc(F)cc3o2)N1 (stereo not shown) = TRUE
• CC1=C(C(=O)NCc2cn(C)cn2)C(c2ccccc2Cl)N=C(Nc2nc3ccc(F)cc3o2)N1 (stereo not shown) = FALSE
• CC1=C(C(=O)Nc2cc(C(=O)O)ccn2)C(c2ccc(C(F)(F)F)cc2Cl)N=C(Nc2nc3ccc(F)cc3o2)N1 (stereo not shown) = FALSE
• CC1=C(C(=O)NCc2ccccc2CO)C(c2ccccc2Cl)N=C(Nc2nc3ccccc3o2)N1 (stereo not shown) = FALSE
• CC1=C(C(=O)Nc2nnc(-c3cccnc3)s2)C(c2ccccc2Cl)N=C(Nc2nc3cc(C)ccc3o2)N1 (stereo not shown) = FALSE

Inquiry: hey, is IC50 for CC1=C(C(=O)NCc2cnn(C)c2)C(c2ccc(C)cc2Cl)N=C(Nc2nc3ccc(F)c(N)c3o2)N1 (stereo not shown) lower than 10 µM or not?
Reply text: TRUE

Inquiry: hey, is IC50 for CCn1cc(CNC(=O)C2=C(C)NC(Nc3nc4ccc(F)cc4o3)=NC2c2ccc(C)cc2Cl)cn1 (stereo not shown) lower than 10 µM or not?
Reply text: TRUE

----------
target: recombinant mouse GALK1 (Mus musculus)
protocol notes: mGALK1 biochemical activity assay (Kinase-Glo Plus, ATP depletion)
assay setup: recombinant mouse GALK1, Kinase-Glo Plus ATP depletion; read-out: mGALK
experimental readout: log10 IC50 (log10 of the value in µM)
Parameter value (number): base-10 log of IC50 in µM.

Please supply log10 IC50 for each of the following items, keeping them in order.
1. CC1=C(C(=O)Nc2cc(C(=O)O)ccn2)C(c2ccccc2Cl)N=C(Nc2nc3cc(N)ccc3o2)N1 (centres unmarked)
2. CC1=C(C(=O)NCc2cncs2)C(c2ccccc2Cl)N=C(Nc2nc3ccccc3o2)N1 (centres unmarked)
3. CC1=C(C(=O)NCc2cnn(C)c2)C(c2ccc(Cl)cc2Cl)N=C(Nc2nc3cccc(N)c3o2)N1 (centres unmarked)
4. CC1=C(C(=O)Nc2cc(C(=O)O)ccn2)C(c2ccccc2Cl)N=C(Nc2nc3cccc([N+](=O)[O-])c3o2)N1 (centres unmarked)
5. CC1=C(C(=O)Nc2ccc(Cl)cc2)C(c2ccccc2Cl)N=C(Nc2nc3ccccc3o2)N1 (centres unmarked)
6. CC1=C(C(=O)NCc2cnn(C(C)(C)C)c2)C(c2ccc(C)cc2Cl)N=C(Nc2nc3ccc(F)c(N)c3o2)N1 (centres unmarked)
7. COc1ccc(C2N=C(Nc3nc4cccc(N)c4o3)NC(C)=C2C(=O)Nc2cc(C(=O)O)ccn2)c(Cl)c1 (racemic)
8. CC1=C(C(=O)Nc2cccc(-c3cn[nH]c3)c2)C(c2ccccc2Cl)N=C(Nc2nc3ccccc3o2)N1 (centres unmarked)

Reply text:
1. 1.34
2. 1.09
3. 0.84
4. 1.59
5. 0.89
6. 0.64
7. 0.29
8. 1.59

Please supply log10 IC50 for each of the following items, keeping them in order.
1. COC(=O)c1ccc(CNC(=O)C2=C(C)NC(Nc3nc4ccccc4o3)=NC2c2ccccc2Cl)cc1 (centres unmarked)
2. CC1=C(C(=O)Nc2ccc(-c3cn[nH]c3)cc2)C(c2ccccc2Cl)N=C(Nc2nc3ccccc3o2)N1 (centres unmarked)
3. CC1=C(C(=O)NCc2cnn(Cc3ccccc3)c2)C(c2ccc(C)cc2Cl)N=C(Nc2nc3cccc(N)c3o2)N1 (centres unmarked)

Reply text:
1: 0.94; 2: 1.09; 3: 0.74

----------
Assign Perm. (1 × 10^−6 cm/sec) to each entry below.
protocol notes: PAMPA permeability

* CC1=C(C(=O)Nc2cc(C(=O)O)ccn2)C(c2ccccc2Cl)N=C(Nc2nc3ccc(C)cc3o2)N1 (stereo not shown) | <1 1 × 10^−6 cm/sec

Please supply Perm. (1 × 10^−6 cm/sec) for each of the following items, keeping them in order.
1. CC1=C(C(=O)Nc2cc(C(=O)O)ccn2)C(c2ccc(C)cc2Cl)N=C(Nc2nc3ncccc3o2)N1 (stereo not shown)
2. CC1=C(C(=O)Nc2cc(C(=O)O)ccn2)C(c2ccc(-n3cccn3)cc2Cl)N=C(Nc2nc3ccc(F)cc3o2)N1 (stereo not shown)
3. CC1=C(C(=O)NCc2cnn(Cc3ccccc3)c2)C(c2ccc(C)cc2Cl)N=C(Nc2nc3ccc(F)cc3o2)N1 (stereo not shown)
4. CC1=C(C(=O)Nc2nnc(-c3cccnc3)s2)C(c2ccccc2Cl)N=C(Nc2nc3cc(C)ccc3o2)N1 (stereo not shown)
5. CC1=C(C(=O)Nc2ccccn2)C(c2ccccc2Cl)N=C(Nc2nc3ccc(F)cc3o2)N1 (stereo not shown)
6. CC1=C(C(=O)Nc2cc(C(=O)O)ccn2)C(c2ccccc2Cl)N=C(Nc2nc3cccc(F)c3o2)N1 (stereo not shown)

Reply text:
1. <1 1 × 10^−6 cm/sec
2. <1 1 × 10^−6 cm/sec
3. 159.0 1 × 10^−6 cm/sec
4. <1.5 1 × 10^−6 cm/sec
5. 171.11 1 × 10^−6 cm/sec
6. <1 1 × 10^−6 cm/sec

----------
protocol notes: PAMPA permeability
assay setup: PAMPA
experimental readout: Perm. (1 × 10^−6 cm/sec)

• COC(=O)Cc1ccc(NC(=O)C2=C(C)NC(Nc3nc4ccccc4o3)=NC2c2ccccc2Cl)cc1 (stereo not shown) [Compound 170] = 195.0 1 × 10^−6 cm/sec

Please supply Perm. (1 × 10^−6 cm/sec) for each of the following items, keeping them in order.
1. CC1=C(C(=O)Nc2cccc(C(=O)O)n2)C(c2ccccc2Cl)N=C(Nc2nc3ccccc3o2)N1 (stereo not shown) [Compound 195]
2. CCOC(=O)c1nnc(NC(=O)C2=C(C)NC(Nc3nc4ccccc4o3)=NC2c2ccccc2Cl)s1 (stereo not shown) [Compound 168]

Reply text:
1. <1 1 × 10^−6 cm/sec
2. <2.7 1 × 10^−6 cm/sec

Please supply Perm. (1 × 10^−6 cm/sec) for each of the following items, keeping them in order.
1. CC1=C(C(=O)Nc2nncs2)C(c2ccccc2C(F)(F)F)N=C(Nc2nc3ccccc3o2)N1 (stereo not shown) [Compound 263]
2. CCn1nc(C)c(CNC(=O)C2=C(C)NC(Nc3nc4ccc(F)c(N)c4o3)=NC2c2ccc(C)cc2Cl)c1F (stereo not shown) [Compound 129]
3. O/N=C1\CCCC2=C1C(c1ccccc1Cl)N=C(Nc1nc3ccccc3o1)N2 (stereo not shown) [Compound 244]
4. CC1=C(C(=O)N(C)c2ccccc2)C(c2ccccc2Cl)N=C(Nc2nc3ccccc3o2)N1 (stereo not shown) [Compound 151]

Reply text:
29.8 1 × 10^−6 cm/sec
187.9 1 × 10^−6 cm/sec
244.29 1 × 10^−6 cm/sec
203.1 1 × 10^−6 cm/sec

----------
Assign Sol. to each entry below.
protocol notes: aqueous kinetic solubility
assay setup: aqueous kinetic solubility

# example entries with known answers
- CC1=C(C(=O)Nc2ccc(Cl)cc2)C(c2ccccc2Cl)N=C(Nc2nc3ccccc3o2)N1 (stereo not shown): <1 µg/mL
- CC1=C(C(=O)Nc2cc(C(=O)O)ccn2)C(c2ccccc2Cl)N=C(Nc2nc3ccccc3o2)N1C(=O)c1ccccc1 (stereo not shown): 73.9 µg/mL
- CC1=C(C(=O)Nc2cccc(CO)c2)C(c2ccccc2Cl)N=C(Nc2nc3ccccc3o2)N1 (stereo not shown): <1 µg/mL
- CC1=C(C(=O)Nc2nncs2)C(c2ccccc2Br)N=C(Nc2nc3ccccc3o2)N1 (stereo not shown): <1 µg/mL
- COC(=O)c1ccc(NC(=O)C2=C(C)NC(Nc3nc4ccccc4o3)=NC2c2ccccc2Cl)cn1 (stereo not shown): <1 µg/mL
- CC1=C(C(=O)NCc2cncs2)C(c2ccccc2Cl)N=C(Nc2nc3ccccc3o2)N1 (stereo not shown): <1 µg/mL

Please supply Sol. for each of the following items, keeping them in order.
1. CC1=C(C(=O)Nc2ccc(-n3cccn3)cc2)C(c2ccccc2Cl)N=C(Nc2nc3ccccc3o2)N1 (stereo not shown)
2. O=C1CC(C(=O)NCCO)CC2=C1C(c1ccccc1Cl)N=C(Nc1nc3ccccc3o1)N2 (stereo not shown)
3. CC1=C(C(=O)Nc2nncs2)C2(CCOC2)N=C(Nc2nc3ccccc3o2)N1 (stereo not shown)
4. CC1=C(C(=O)Nc2ccccc2CO)C(c2ccccc2Cl)N=C(Nc2nc3ccccc3o2)N1 (stereo not shown)

Reply text:
["<1 µg/mL", "28.98 µg/mL", "37.9 µg/mL", "<1 µg/mL"]

----------
target: recombinant mouse GALK1 (Mus musculus, UniProt Q9R0N0)
protocol notes: mGALK1 biochemical activity assay (Kinase-Glo Plus, ATP depletion)
assay setup: recombinant mouse GALK1, Kinase-Glo Plus ATP depletion; read-out: mGALK
Assign IC50 to each entry below.
Numbers only, in µM.

# example entries with known answers
- CC1=C(C(=O)Nc2cc(C(=O)O)ccn2)C(c2ccc(C)cc2Cl)N=C(Nc2nc3cccc(N)c3o2)N1 (racemic): 1.72
- CC1=C(C(=O)Nc2cc(C(=O)O)ccn2)C(c2ccccc2Cl)N=C(Nc2nc3cc(Cl)ccc3o2)N1 (stereo not shown): 6.11
- COC(=O)c1ccnc(NC(=O)C2=C(C)NC(Nc3nc4ccc(F)cc4o3)=N[C@@H]2c2ccccc2Cl)c1: 86.3
- CC1=C(C(=O)Nc2cc(C(=O)O)ccn2)[C@H](c2ccccc2Cl)N=C(Nc2nc3ccc(F)cc3o2)N1: 1.72
- CC1=C(C(=O)Nc2ccc(C#N)cn2)C(c2ccccc2Cl)N=C(Nc2nc3ccc(F)cc3o2)N1 (stereo not shown): 13.7

Please supply IC50 for each of the following items, keeping them in order.
1. CC1=C(C(=O)Nc2cc(C(=O)O)ccn2)[C@H](c2ccccc2Cl)N=C(Nc2nc3cccc(N)c3o2)N1
2. CC1=C(C(=O)Nc2ccc(O)cc2)C(c2ccccc2Cl)N=C(Nc2nc3ccccc3o2)N1 (stereo not shown)

Reply text:
1.72
9.68
